FYI, the data here is from ChEMBL document CHEMBL5726725.

# targetEntity: Metallo-beta-lactamase type 2 (Bacteria, UniProt C7C422)
# Sequence (C7C422 whole entry): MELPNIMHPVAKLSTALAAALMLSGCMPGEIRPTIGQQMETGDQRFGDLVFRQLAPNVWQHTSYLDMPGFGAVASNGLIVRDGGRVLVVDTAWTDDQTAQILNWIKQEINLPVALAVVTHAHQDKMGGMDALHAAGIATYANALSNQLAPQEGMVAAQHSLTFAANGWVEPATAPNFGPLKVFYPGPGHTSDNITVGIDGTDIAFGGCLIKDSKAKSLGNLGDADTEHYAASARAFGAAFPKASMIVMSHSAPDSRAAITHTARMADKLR
# experimentNotes: MBL Inhibitory Activity in Constructed E. coli Cells Expressing MBLs: a. Transfer 50 μl LB with 0.8 mM IPTG (0.4 mM final concentration in assay) to each wellb. Add 1 μl inhibitor/positive control (500/1000 μM final concentration in assay) to selected wellsc. Add 50 μl overnight culture (=1) to each welld. Incubate in plate reader at 37° C. for 20 min with shakinge. Add 5 μl nitrocefin (3.2 mM) to selected wells with a multichannel pipettef. Incubate the plate in the plate reader for 3 hours, measuring nitrocefin hydrolysis at A482 every minute, with shaking in-betweeng. Measure endpoint at A600 to see how inhibitor alone effects bacterial growthh. Centrifuge the plate at 2800 rpm for 10 min, and transfer 50 μl to clean wellsi. Measure A482 endpoint.
metric: IC50 (µM)
Return type: number; implicit unit µM.

Entry COc1ccc(Cn2cc(CN(Cc3ccccn3)Cc3ccccn3)nn2)cc1 — recorded IC50 = 0.38
